Molecular target: Cav1.3 L-type Ca channels (Rattus norvegicus)
Construct: expressed in transfected cells; host or cells: HEK293
Sequence (P27732 whole entry): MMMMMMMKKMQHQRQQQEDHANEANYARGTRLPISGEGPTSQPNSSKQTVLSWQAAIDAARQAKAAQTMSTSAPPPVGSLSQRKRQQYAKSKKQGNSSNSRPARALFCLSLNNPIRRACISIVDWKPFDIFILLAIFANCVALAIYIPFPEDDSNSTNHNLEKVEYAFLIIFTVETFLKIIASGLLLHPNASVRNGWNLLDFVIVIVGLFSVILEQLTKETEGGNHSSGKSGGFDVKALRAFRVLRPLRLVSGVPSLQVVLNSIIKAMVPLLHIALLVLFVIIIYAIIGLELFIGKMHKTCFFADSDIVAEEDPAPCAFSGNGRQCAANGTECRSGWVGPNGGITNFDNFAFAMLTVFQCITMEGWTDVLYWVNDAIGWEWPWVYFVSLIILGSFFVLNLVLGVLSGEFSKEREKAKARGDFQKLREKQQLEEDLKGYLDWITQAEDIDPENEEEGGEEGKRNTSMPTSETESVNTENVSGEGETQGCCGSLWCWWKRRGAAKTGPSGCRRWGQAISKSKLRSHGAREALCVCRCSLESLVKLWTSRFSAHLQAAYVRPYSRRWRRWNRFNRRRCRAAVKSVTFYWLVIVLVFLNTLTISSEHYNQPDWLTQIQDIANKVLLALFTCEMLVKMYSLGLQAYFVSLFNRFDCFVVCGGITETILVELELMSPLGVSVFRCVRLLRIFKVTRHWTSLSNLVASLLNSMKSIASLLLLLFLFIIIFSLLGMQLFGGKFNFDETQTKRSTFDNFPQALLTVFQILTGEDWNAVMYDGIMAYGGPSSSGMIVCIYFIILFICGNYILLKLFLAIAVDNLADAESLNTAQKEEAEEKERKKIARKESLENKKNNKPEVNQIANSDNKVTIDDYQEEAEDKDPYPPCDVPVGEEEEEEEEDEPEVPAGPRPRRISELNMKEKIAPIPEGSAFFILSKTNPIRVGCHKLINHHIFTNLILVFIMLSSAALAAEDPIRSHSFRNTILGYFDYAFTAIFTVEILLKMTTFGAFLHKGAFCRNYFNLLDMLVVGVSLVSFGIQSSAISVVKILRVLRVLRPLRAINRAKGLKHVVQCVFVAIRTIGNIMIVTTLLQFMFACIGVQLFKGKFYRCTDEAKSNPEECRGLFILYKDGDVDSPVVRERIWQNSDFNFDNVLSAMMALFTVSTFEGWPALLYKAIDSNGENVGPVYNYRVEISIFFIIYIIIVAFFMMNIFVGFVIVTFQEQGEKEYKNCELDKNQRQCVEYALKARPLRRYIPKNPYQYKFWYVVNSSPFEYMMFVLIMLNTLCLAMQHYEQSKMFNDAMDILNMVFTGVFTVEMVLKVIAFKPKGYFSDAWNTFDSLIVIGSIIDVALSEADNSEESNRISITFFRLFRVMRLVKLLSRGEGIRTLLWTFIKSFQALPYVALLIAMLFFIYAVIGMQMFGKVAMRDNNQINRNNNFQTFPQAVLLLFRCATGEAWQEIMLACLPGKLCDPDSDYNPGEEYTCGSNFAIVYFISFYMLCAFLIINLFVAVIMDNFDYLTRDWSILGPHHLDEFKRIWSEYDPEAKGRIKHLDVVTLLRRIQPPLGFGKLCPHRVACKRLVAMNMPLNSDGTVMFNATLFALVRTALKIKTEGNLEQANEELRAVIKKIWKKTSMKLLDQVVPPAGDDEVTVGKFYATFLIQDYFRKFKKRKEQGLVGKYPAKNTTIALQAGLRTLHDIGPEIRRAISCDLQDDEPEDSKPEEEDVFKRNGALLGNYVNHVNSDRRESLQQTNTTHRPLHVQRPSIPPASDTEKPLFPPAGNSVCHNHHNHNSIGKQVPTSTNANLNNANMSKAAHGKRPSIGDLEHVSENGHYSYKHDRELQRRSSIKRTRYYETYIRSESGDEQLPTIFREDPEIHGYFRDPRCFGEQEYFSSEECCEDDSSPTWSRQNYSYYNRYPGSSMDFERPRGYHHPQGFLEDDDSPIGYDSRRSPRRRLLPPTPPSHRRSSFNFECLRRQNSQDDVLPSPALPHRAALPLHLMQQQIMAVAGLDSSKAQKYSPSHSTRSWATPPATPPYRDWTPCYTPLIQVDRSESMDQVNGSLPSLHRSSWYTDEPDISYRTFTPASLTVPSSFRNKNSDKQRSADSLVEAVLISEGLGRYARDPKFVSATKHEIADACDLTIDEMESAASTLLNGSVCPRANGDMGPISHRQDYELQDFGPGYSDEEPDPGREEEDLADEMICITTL
Sequence (P54284 whole entry partner): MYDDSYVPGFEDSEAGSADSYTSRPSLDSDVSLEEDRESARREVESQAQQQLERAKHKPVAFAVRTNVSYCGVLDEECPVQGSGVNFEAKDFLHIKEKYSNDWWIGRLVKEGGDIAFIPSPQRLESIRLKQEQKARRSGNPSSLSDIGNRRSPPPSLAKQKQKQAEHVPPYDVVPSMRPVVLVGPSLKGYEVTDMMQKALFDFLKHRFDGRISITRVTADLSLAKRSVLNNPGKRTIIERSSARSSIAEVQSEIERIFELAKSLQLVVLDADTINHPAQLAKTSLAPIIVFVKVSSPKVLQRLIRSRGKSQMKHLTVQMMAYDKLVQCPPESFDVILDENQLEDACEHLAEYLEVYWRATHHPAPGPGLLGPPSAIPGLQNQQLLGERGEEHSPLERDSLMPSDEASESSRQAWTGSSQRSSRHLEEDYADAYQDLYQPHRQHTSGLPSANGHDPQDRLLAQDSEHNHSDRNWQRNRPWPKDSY
Sequence (P54289 25-956 partner limits assumed): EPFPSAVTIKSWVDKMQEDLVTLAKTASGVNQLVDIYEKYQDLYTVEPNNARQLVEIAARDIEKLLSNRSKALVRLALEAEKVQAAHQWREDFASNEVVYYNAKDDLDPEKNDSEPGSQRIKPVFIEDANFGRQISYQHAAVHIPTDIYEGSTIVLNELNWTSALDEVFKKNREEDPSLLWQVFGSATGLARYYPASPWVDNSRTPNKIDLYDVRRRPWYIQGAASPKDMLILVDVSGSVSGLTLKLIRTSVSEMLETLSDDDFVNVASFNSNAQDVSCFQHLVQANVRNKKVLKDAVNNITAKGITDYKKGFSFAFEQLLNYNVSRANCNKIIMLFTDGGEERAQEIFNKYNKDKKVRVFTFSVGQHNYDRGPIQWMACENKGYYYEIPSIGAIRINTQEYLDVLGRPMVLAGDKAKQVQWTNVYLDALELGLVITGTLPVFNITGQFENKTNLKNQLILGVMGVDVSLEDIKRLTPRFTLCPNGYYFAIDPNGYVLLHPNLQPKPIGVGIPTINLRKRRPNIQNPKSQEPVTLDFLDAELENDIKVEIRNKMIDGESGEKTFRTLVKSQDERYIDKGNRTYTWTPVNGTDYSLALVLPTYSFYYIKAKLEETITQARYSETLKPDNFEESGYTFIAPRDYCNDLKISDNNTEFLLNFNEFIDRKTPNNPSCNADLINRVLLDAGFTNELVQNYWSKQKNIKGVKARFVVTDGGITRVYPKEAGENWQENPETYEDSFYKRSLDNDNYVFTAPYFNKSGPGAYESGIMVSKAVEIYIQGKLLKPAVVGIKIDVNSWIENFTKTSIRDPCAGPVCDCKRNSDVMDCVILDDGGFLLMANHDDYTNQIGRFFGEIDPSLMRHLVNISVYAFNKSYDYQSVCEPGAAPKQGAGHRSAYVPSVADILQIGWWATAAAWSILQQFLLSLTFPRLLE
Sequence (P54289 957-1103 partner limits assumed): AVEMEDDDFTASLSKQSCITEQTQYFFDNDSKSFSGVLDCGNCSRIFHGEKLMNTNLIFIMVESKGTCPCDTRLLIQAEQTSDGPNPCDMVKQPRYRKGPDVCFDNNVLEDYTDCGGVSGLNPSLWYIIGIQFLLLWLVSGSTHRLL
Experiment: FLIPR Fluo-8 calcium assay, Cav1.3 channel inhibition in HEK293 cells
Type: cell-based
Conditions: IC50 (μM) CaV1.3, first library; FLIPR, HEK293; value (±SD)
measurement_type: IC50 (µM)
Kindly answer with a numeric value in µM, unit omitted.

### Prompt Item under review: O=C1CC(=O)N(CCc2ccc(Cl)cc2Cl)C(=O)N1CCc1ccc(Cl)cc1 . Reported IC50?
### Response 1.8

### Prompt What value of measured IC50 is listed for O=C1CC(=O)N(CCc2c(Cl)cccc2Cl)C(=O)N1CCc1ccc(Cl)cc1 ?
### Response 2.7

### Prompt What value of measured IC50 is listed for CCCCCCCCN1C(=O)CC(=O)N(CCc2ccc(Cl)cc2)C1=O ?
### Response 1.5

### Prompt What value of IC50 has been reported for the following compound? O=C1CC(=O)N(CCc2ccc(Cl)cc2)C(=O)N1CCCc1ccccc1
### Response 1.1

### Prompt Report IC50 for C=CCOC(=O)[C@H](Cc1ccccc1)N1C(=O)CC(=O)N(CCc2ccc(Cl)cc2)C1=O please.
### Response 9.4

### Prompt Could you tell me which IC50 is on file for O=C1CC(=O)N(Cc2ccc([N+](=O)[O-])cc2)C(=O)N1CCCCc1ccccc1 ?
### Response 7.7

### Prompt Could you tell me which IC50 is on file for O=C1CC(=O)N(Cc2ccc(Cl)cc2)C(=O)N1CCc1ccc(Cl)cc1 ?
### Response 2.1

### Prompt Look up IC50: O=C1CC(=O)N(C2CCc3ccccc32)C(=O)N1CCc1ccc(Cl)cc1 (stereo not drawn)
### Response 8.4

### Prompt Consider the compound O=C1CC(=O)N(Cc2ccc(Cl)cc2)C(=O)N1CCc1ccc2ccccc2c1 and give its measured IC50.
### Response 1.7

### Prompt Name the reported IC50 value associated with the compound O=C1CC(=O)N(CCc2ccc3ccccc3c2)C(=O)N1CCc1ccc(F)cc1
### Response 1.8

### Prompt // IC50 lookup, key: O=C1CC(=O)N(Cc2ccc(Cl)cc2)C(=O)N1CCCCc1ccccc1
### Response 2.1

### Prompt Give the measured IC50 of O=C1CC(=O)N(C2CCCCC2)C(=O)N1CCc1ccc(F)cc1 .
### Response 9.4

### Prompt Any idea what its IC50 is? The compound is O=C1CC(=O)N(CCc2cccc([N+](=O)[O-])c2)C(=O)N1CCCc1ccccc1
### Response 10.4

### Prompt Would you mind telling me what IC50 value was observed for CC(CN1C(=O)CC(=O)N(CCc2ccc(Cl)cc2)C1=O)c1ccccc1 (stereo not drawn) ?
### Response 1.3

### Prompt GET /values?readout=IC50&item= O=C1CC(=O)N(Cc2cccc([N+](=O)[O-])c2)C(=O)N1CCc1ccc(Cl)cc1
### Response 21.2

### Prompt Look up IC50 for this compound: O=C1CC(=O)N(CCc2ccc(Cl)cc2)C(=O)N1CCc1ccc(F)cc1
### Response 1.1

### Prompt # lookup: IC50 of O=C1CC(=O)N(CCc2cccc(F)c2)C(=O)N1CCCc1ccccc1
### Response 1.6

### Prompt // query IC50 value for entry O=C1CC(=O)N(CCc2ccc(Br)cc2)C(=O)N1CCc1ccc(Cl)cc1
### Response 1.6
